- Test system: MS2 coat protein
- protocolNotes: apparent KD of MS2 coat protein; designed switch direction (-1 OFF switch, 1 ON switch): -1; higher = weaker reporter binding
- conditionDetails: input ligand: microRNA oligo, concentration not stated
# Lookup of reported apparent KD of MS2 coat protein keyed by entry
Reply with the number and its unit after it.

Some sequences with known apparent KD of MS2 coat protein results, for comparison:
AAAAAGUCAGGAUAUGUAGCAAAAGGUGAUCAAAAAAAGCUACAGAAGGGACAUGAGGAUCACCCAUGUAAAAA [Ex4: 937] (Eterna round: R96, puzzle: Exclusion 4); 162 nM
UCUCGCUGGCGAGGAUAUCCUGUGCGGUUCCGGCUCGUGUCUGUUACAUGAGGAUCACCCAUGUGGGAGAAGGUGCCUGUGGCC [Design 95] (Eterna round: R96, puzzle: Exclusion NG 2); 15.6 nM
CUAAAUCAUGUAGGAUAUGCGUGGCAAAGCUAUGCAGAAGGACAUGAGGAUCACCCAUGUCUUUCCGUCUGAGUACAGACGGGA [Mat - Exclusion NG 1 - Mod of JL - D46] (Eterna round: R96, puzzle: Exclusion NG 1); 21.7 nM
AGAUCUAGGACAGGAUAUACAGAUGGCUUCAUCGAAGAUGAAGCCAUUACAUGAGGAUCACCCAUGUAGAAGGGUCCUAGAUCA [Omei Exc(NG) 2Av5] (Eterna round: R96, puzzle: Exclusion NG 2); 12 nM
UGAUCAGACCGAGGAUAUACAUGGAGGACGCACGUGAGUGCGUCCACUACAUGAGGAUCACCCAUGUAGAAGGCGGUCUGAUCU [JL ENG2 1.92] (Eterna round: R96, puzzle: Exclusion NG 2); 130 nM

Inquiry: Returns the measured apparent KD of MS2 coat protein for the input sequence. Input: UACAUGAGGAUCACCCAUGUUUUGUCGUGUAUGGUAUUUAUCUAGGAUAUCAAUUUAGUUACUUAUGAGAAGGAGAAUAUUAAU [JMF's solution 77] (Eterna round: R96, puzzle: Exclusion NG 3)
Reply text: 22.3 nM

====

- Tested on: MS2 coat protein
- protocolNotes: apparent KD of MS2 coat protein, switch OFF state (with FMN for OFF switches, without FMN for ON switches); designed switch direction (-1 OFF switch, 1 ON switch): -1; higher = weaker reporter binding
- conditionDetails: FMN input: 0 or 200 uM; Eterna round: R93 (includes R88 designs)
# Lookup of reported apparent KD of MS2 coat protein keyed by entry
State the answer as a number, implicitly in nM.

Some sequences with known apparent KD of MS2 coat protein results, for comparison:
AACUGACAUGAGGAUCACCCAUGUCAGGAUAUGCUUCAUAAAAAGAAAUAAAAAUGAUGCAGAAGGGAUAUGGG [Design 34 :P Sub-opt 10]; 37.1
AAAAAGAUAGGAUAUACAUGAAAAAAAAAAAAAAAAAAAAGACAUGAGGAUCACCCAUGUAGAAGGGUCAAAAA [water's exclusion 2 2nd]; 42.1
AGCUAGUCAGGAUAUACGAGAAAGAAAGAAGACGUGAAGGGACAUGAGGAUCACCCAUGUAGAAGGGACUAGCA [Diamond 26]; 67.1
AAAAAGCGAGGAUAUACGAGUCAAAGAAAAGACAAGGAGAAACAUGAGGAUCACCCAUGUAGAAGGCGCAAAAA [Fiskers exclusion D2]; 25.3
CCUGGCUUAGGAUAUACAGGAACCGGGAACCCGGAAGUGAAACAUGAGGAUCACCCAUGUAGAAGGAAGAAAGC [Leusanzaus]; 19.1
AAAGAGUGAGGAUAUUCGGAUAGGAAAACGAAAACCUAUCCGAAGAAGGCACAUGAGGAUCACCCAUGUAAAAA [67% Ecls-II - Early G segment 2]; 39.5
ACUAAUGAAGGAUAUACAAACAAAAAAAAAACAACAAACAAACAUGAGGAUCACCCAUGUAGAAGGUCAAAAAU [JR_Exc002_Sub1202]; 17.8
AAAAAAGCAGGAUAUACGAACAUGUCAAAAGACGUGAAGGGACAUGAGGAUCACCCAUGUAGAAGGGUUAAAAA [JL Stem Breaker 5]; 53.6

# input for lookup
Inquiry: Returns the measured apparent KD of MS2 coat protein for the input sequence. Input: AAGGUAUAAGGAUAUGCAUAGAUACAGACACAUGUUCAAGUACAUGAGGAUCACCCAUGUAGAAGGUAUAUAUA [AJ 12]
Reply text: 26
